system: Saccharomyces cerevisiae; experiment: protein stability index of tFT-peptide fusion (C-terminal peptide) (PSI (0-1 scale)); higher = more stable (slower turnover); conditions: genetic background: wild type; temperature: 30 C
# if value of protein stability index reaches 0.7, tag class 1; if it stays below, tag class 0

In [3]: df
Out[3]:
                            sequence_chain               measured_on  answer_label
0     NAKSKVFSIENN [LSG1 C-terminal 12 aa]  Saccharomyces cerevisiae       class 0
1    IASKNNWLPLQW [SIW14 C-terminal 12 aa]  Saccharomyces cerevisiae       class 1
2  SIINPSSNGCNK [YNL235C C-terminal 12 aa]  Saccharomyces cerevisiae       class 0
3     ATCGSSTYFARK [MCO8 C-terminal 12 aa]  Saccharomyces cerevisiae       class 1
4  LKTIAAVFSVRV [YJR114W C-terminal 12 aa]  Saccharomyces cerevisiae       class 0
5   DNTKESKDVKMN [RTT102 C-terminal 12 aa]  Saccharomyces cerevisiae       class 0
6     GGGVLQLISYIL [YSY6 C-terminal 12 aa]  Saccharomyces cerevisiae       class 0

---

# protein stability index values compiled below
tested on: Saccharomyces cerevisiae; test: protein stability index of tFT-peptide fusion in deletion strain of DOA10 (PSI (0-1 scale)); higher = more stable (slower turnover)
measure_name: protein stability index

    sequence_chain               measured_on  measured
 0   RVTRLDAIYFRII  Saccharomyces cerevisiae     0.127
 1    RSLRVLLPLCFR  Saccharomyces cerevisiae     0.687
 2    RVTRLIAIYFRI  Saccharomyces cerevisiae     0.348
 3    GLYMCSVGCWFH  Saccharomyces cerevisiae     0.497
 4    AITLPGCPLLLR  Saccharomyces cerevisiae     0.683
 5    IVTRLDAIYFRI  Saccharomyces cerevisiae     0.612
 6    RVTRLDAMYFRI  Saccharomyces cerevisiae     0.698
 7    CLVQLPILLFFR  Saccharomyces cerevisiae     0.597
 8    RHLRVLLPLYFR  Saccharomyces cerevisiae     0.678
 9    RVTRLDAIYFKI  Saccharomyces cerevisiae     0.595
10    GLYMCSVGCWFC  Saccharomyces cerevisiae     0.287
11    RSYRVLLPLYFR  Saccharomyces cerevisiae     0.637
12   RVTRLDAIYFRIA  Saccharomyces cerevisiae     0.136
13    AITLIMCPLLLR  Saccharomyces cerevisiae     0.658
14    CLVSLPILLIFR  Saccharomyces cerevisiae     0.537
15    RSLRVLIPLYFR  Saccharomyces cerevisiae     0.639
16    RVTRCDAIYFRI  Saccharomyces cerevisiae     0.677
17    CLVVLPILLFFR  Saccharomyces cerevisiae     0.451
18    CLVSLPILLFFW  Saccharomyces cerevisiae     0.435
19    RSLRVLLPPYFR  Saccharomyces cerevisiae     0.689
20    AITLPMCPLLPR  Saccharomyces cerevisiae     0.673
21    RVTRLDAKYFRI  Saccharomyces cerevisiae     0.709
22    RSIRVLLPLYFR  Saccharomyces cerevisiae     0.643
23    RVTRLHAIYFRI  Saccharomyces cerevisiae     0.372
24    RMTRLDAIYFRI  Saccharomyces cerevisiae     0.655
25    GLYMCSVGCDFR  Saccharomyces cerevisiae     0.663
26   AITLPMCPLLLRK  Saccharomyces cerevisiae      0.67
27    GLYMCSVGCWHR  Saccharomyces cerevisiae     0.722
28    RATRLDAIYFRI  Saccharomyces cerevisiae     0.681
29    RVTRLYAIYFRI  Saccharomyces cerevisiae     0.294
30    CLVSLPIKLFFR  Saccharomyces cerevisiae     0.652
31   RSLRVLLPLYFRD  Saccharomyces cerevisiae     0.647
32    ILYMCSVGCWFR  Saccharomyces cerevisiae     0.486
33    GLYMCSVGRWFR  Saccharomyces cerevisiae     0.668
34    RSLRVELPLYFR  Saccharomyces cerevisiae     0.685
35    CLVSLPILLFVR  Saccharomyces cerevisiae     0.249
36    RVDRLDAIYFRI  Saccharomyces cerevisiae     0.639
37    AITLRMCPLLLR  Saccharomyces cerevisiae     0.643
38    RNTRLDAIYFRI  Saccharomyces cerevisiae     0.664
39    GLYMASVGCWFR  Saccharomyces cerevisiae     0.684
40    CLVSLPILCFFR  Saccharomyces cerevisiae     0.558

---

tested on: Saccharomyces cerevisiae; assay: protein stability index of tFT-peptide fusion (C-terminal peptide) (PSI (0-1 scale)); higher = more stable (slower turnover); settings: genetic background: das1 deletion; temperature: 37 C
# protein stability index values compiled below
measure_name: protein stability index

>>> print(df.to_string())
    sequence_chain  measured
 0    AKVSFYALARQY     0.726
 1    YHFSLFFPLSLP     0.711
 2    NHKNANAATLIN     0.727
 3    FIGVLVFSWLLF     0.412
 4    FCCSVFCFLCLY     0.572
 5    GFFFFHGLCFFV     0.545
 6    VVTFCCARVTKI     0.665
 7    LYRSLLLSFCVL     0.639
 8    FCVLLFYCFFFF      0.38
 9    RVCVFVLFGLCF      0.48
10    LWVSHFVILIVS     0.236
11    LSVVVLVLCVLL      0.42
12    IGWGGGTWVKMG     0.769
13    GCILSLCYAVST     0.534
14    FFVFLVLFCLWV     0.397
15    LLVRSFIFPLVY     0.482
16    NVVIGLHLLVYI     0.419
17    LFFWFMYLRRLI     0.524
18    WLSWATRRIVLG     0.605
19    RLVMAVRVAAGG      0.56
20    VPASWLRMLAFC     0.701
21    CCFVGLRYVLWV     0.531
22    VVTFLCPLVGHV     0.546
23    RNWVVDGWRRFP     0.735
24    KTSVLLCVSTSF     0.628
25    LPFFSFSPWWFY     0.817
26    YALVQHRWVYYF     0.724
27    SGWGCRMVVCAG     0.299
28    WRVFRPSLRLFA     0.598
29    CLAWWLGRVWVC     0.364
30    AVLAALVSTLAG     0.589
31    SPWSIHLILLQV     0.438
32    PSVRCVVACFIN     0.576
33    YLAGPLARLRKF     0.738
34    LVGYCGAWACVV     0.674
35    RLPFPVVLFLLF     0.515
36    MGDFGFIFVFFL     0.648
37    LVPYLWWLVFAL     0.319
38    SWFRRPFPPRLL      0.67
39    IVEVNCILMWIF     0.532
40    WVFMVILLVFLV      0.33

---

system: Saccharomyces cerevisiae; assay: protein stability index of tFT-peptide fusion (C-terminal peptide) (PSI (0-1 scale)); higher = more stable (slower turnover); details: genetic background: cdc53-1; temperature: 37 C
// bucketize protein stability index: A: < 0.5; B: ≥ 0.5 and < 0.7; C: ≥ 0.7

>>> print(df.to_string())
   sequence_chain  answer_label
0    WPRSFSIILLSR             A
1    SGLPLVILFLCL             B
2    VLSCIPRLAIAA             A
3    FFVFYICSCFLV             A
4    VILCSCSFVLRP             B
5    NFSALECKVQLT             C

---

tested on: Saccharomyces cerevisiae; assay: protein stability index of tFT-peptide fusion (C-terminal peptide) (PSI (0-1 scale)); higher = more stable (slower turnover); conditions: genetic background: das1 deletion; temperature: 37 C
# protein stability index values compiled below
measure_name: protein stability index

>>> df
    sequence_chain  measured
 0    VRVFSLVVCWVV     0.441
 1    DWCACFFILLLA      0.17
 2    WGRGYRWRIWDV      0.79
 3    SFGLICFLILCG     0.372
 4    FVCFSFFFPFLL      0.51
 5    CSRDVFLFIKFL     0.568
 6    LPTLDCPLHRLF     0.761
 7    GGKTLSIFLRIS     0.665
 8    EERKIFLKVVKV     0.575
 9    LYSLRRNWLRTP     0.772
10    GYRYMWLWRLSA     0.762
11    VRFSAVFVKVGV      0.57
12    CFYVGFLGYFVF      0.55
13    DSPRGRCVRLLV     0.741
14    FCVGVLFSCLVF      0.43
15    KHKIIGKYQRQI     0.724
16    VGPLAPVCLLVL     0.516
17    TCGAKWIFSHIC     0.772
18    GGVVGRPWWYVG     0.795
19    WGLPVGVESSGG     0.761
20    LFHSFFLYCLMS     0.662
21    IGYLGSELRFVS     0.762
22    FCVGVVIQLSGV     0.499
23    FVSGRFLFFFVL     0.699
24    CVILVVISGLLG     0.394
25    VVLAFFFWFFVG     0.507
26    LGRYHPWLLFLC     0.614
27    GGLVVYVWGRWS     0.589
28    LPLHPHRSRYLV     0.702
29    YRKKIKNIWLRW     0.602
30    VVAALTPLITVA     0.202
31    CWFGLVSLFWVV     0.576
32    DPPRPIMRIHMI     0.719
33    LLYYMPELLILT     0.273
34    VVRMRPRLFSLY     0.816
35    SFFWAMSLLCFV     0.549
36    GSRVICMVVATM     0.608
37    LWAVGVATDWGG     0.768
38    GYRGRITRLVNG     0.742
39    CRWHLRIVRGLM      0.66
40    SGLPLVILFLCL     0.625
41    AFRLRHEIISLM     0.744
42    SCLFMLFPLVSV     0.529
43    SPPHSPSALPPP     0.732
44    FCLLRYPFVGVL     0.677
45    SVLVSVVLFVRS     0.337
46    WGLGWRGALVAV     0.485
47    VFMSVAPVSVLG     0.259
48    IYNIIFKYRTIT     0.661
49    PSPVPPPSSPSP     0.717
50    RYRVRIVVFGLV      0.59
51    DNLYSLEFMAIR     0.787
52    FWFSFSFLCHSY     0.439
53    AERPVLIIIEFG     0.532
54    GPNWCSVCQGVG     0.493
55    LFWWCMVFISLI     0.413
56    FSLFYYIHLSVA     0.277
57    PSLPPLPPFAAL      0.75
58    ASIEVGNVIKQM      0.72
59    PFFFSFILVLFW     0.286
60    VWSSSYVPLGVY     0.443
61    VCLCVIICSMSV    0.0699
62    ASSSPAPYAPYT      0.76
63    AMFQLRLLVGSV     0.544
64    PDRSTILHISGF     0.744
65    FFFVFLGLRSVF     0.577
66    FFGFFWLFLLFC     0.364
67    VLVVVRSLSFLS     0.534
68    VLSCIPRLAIAA     0.404
69    LLPLLFFFLCLP      0.56
70    KRNLLYNIIVWI     0.524
71    VSSSFSVLVLLF     0.571
72    KCWSGTVMVRLG     0.723
73    LFLLFLCLSSLF     0.591
74    LFVPVFSFGFVC     0.589
75    GRWGGYVGREWG     0.482
76    VGCMVVIWVLWG     0.313
77    YCFLSWVLMCCF     0.438
78    HLLMLAMVGFQC     0.619
79    DFPGDIILRLIA     0.728
80    LVVWASLVRVEG     0.419
81    LIAGTRRIPLFI     0.665
